study-system: ClpB NBD1-M (Thermus thermophilus, UniProt Q9RA63, R322A)
Construct: expressed in E. coli BL21 (DE3) RIL; monomer/dimer equilibrium for the arginine mutants
Sequence (Q9RA63 141-534 R322A): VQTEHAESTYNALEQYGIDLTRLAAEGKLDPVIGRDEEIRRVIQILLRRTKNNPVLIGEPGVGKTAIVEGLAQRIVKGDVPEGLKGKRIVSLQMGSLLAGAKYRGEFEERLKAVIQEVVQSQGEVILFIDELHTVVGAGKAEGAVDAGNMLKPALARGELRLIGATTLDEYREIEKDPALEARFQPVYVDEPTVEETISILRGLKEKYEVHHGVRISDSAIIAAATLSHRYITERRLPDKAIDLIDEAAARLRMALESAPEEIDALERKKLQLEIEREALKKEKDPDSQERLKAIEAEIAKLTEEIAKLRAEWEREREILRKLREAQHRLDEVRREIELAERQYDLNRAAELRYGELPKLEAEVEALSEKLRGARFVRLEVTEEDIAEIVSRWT
assay-explanation: fluorescence displacement titration against MANT-dADP
Type: binding
test-parameters: 2 µM protein; 50 mM Tris/HCl pH 7.5, 50 mM KCl, 5 mM MgCl2, 2 mM EDTA, 25 °C; read-out: KD(ADP)
pKd: −log10 of the molar value.

| molecule | pKd |
| --- | --- |
| Nc1ncnc2c1ncn2[C@@H]1O[C@H](COP(=O)(O)OP(=O)(O)O)[C@@H](O)[C@H]1O [ADP] | 4.97 |

Where do these numbers come from? They come from paper PMC4239642.
